tested on: H146 cells; assay: H146 cell viability, MTT assay; format: cell-based; settings: Homo sapiens, NCI-H146, 48 h, 48 h exposure
Parameter Measured: pIC50
Answers are plain numbers, as −log10 of the molar value.

### Prompt Consider the compound COC(COc1ccc(C#CCN(C)C)cc1F)Cc1sc(N(C)c2cc(C)c(Nc3nc4ccccc4s3)nn2)nc1C(=O)O (stereo not shown) [Example 183] and give its measured pIC50.
### Response 6.73

Now turn to the next compound.
### Prompt What measured pIC50 goes with Cc1cc(N(C)c2nc(C(=O)O)c(C3CCN(S(=O)(=O)Cc4ccccc4)CC3)s2)nnc1Nc1nc2ccccc2s1 [Example 95] ?
### Response 5.03

* * *

What pKi was measured for each of the following?
molecular target: Bcl-xL protein (Homo sapiens, UniProt Q07817, N197C); construct: (2-197)[N197C]; His-His (two His8 stretches joined by a Gly/Ala/Ser/Thr linker); experiment: Fluorescence quenching assay (PUMA peptide displacement); details: 1 nM protein, 400 nM peptide, 2 hours at 23° C.; KI determined from IC50
Sequence (Q07817 2-197 N197C): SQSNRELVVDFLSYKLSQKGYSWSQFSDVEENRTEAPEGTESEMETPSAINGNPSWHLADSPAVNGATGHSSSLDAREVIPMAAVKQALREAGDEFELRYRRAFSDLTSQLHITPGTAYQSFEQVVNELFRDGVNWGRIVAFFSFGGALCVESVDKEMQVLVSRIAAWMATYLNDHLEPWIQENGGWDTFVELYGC
Answers are plain numbers, as −log10 of the molar value.

Before answering, review these 2 worked examples.
### Prompt Find the recorded pKi belonging to `CNCCCCCN(c1cc(C)c(Nc2nc3ccccc3s2)nn1)c1nc(C(=O)O)c(CCCOc2ccc(C#CCN(C)C)cc2F)s1` and report it.
### Response 11.49

### Prompt For the molecule shown here, `Cc1cc(N(C)c2nc(C(=O)O)c(CCCOc3ccc(C#CCNCCN(C)C)cc3F)s2)nnc1Nc1nc2ccccc2s1` , give the reported pKi.
### Response 11.74

Further cases:
### Prompt # input molecule: Cc1cc(N(CCCC(O)C[N+]2(C)CCCCC2)c2nc(C(=O)[O-])c(CCCOc3ccc(C#CCN(C)C)cc3F)s2)nnc1Nc1nc2ccccc2s1 (stereo not drawn) ; wanted: its pKi
### Response 11.46

* * *

molecular target: Bcl-xL protein (Homo sapiens, UniProt Q07817, N197C); construct: (2-197)[N197C]; His-His (two His8 stretches joined by a Gly/Ala/Ser/Thr linker); assay: Fluorescence quenching assay (PUMA peptide displacement); type: binding; settings: 1 nM protein, 400 nM peptide, 2 hours at 23° C.; KI determined from IC50
Parameter Measured: pKi
Answers are plain numbers, as −log10 of the molar value.

### Prompt Suppose we examine the compound CNCC#Cc1ccc(OCCCc2sc(N(CCCCO)c3cc(C)c(Nc4nc5ccccc5s4)nn3)nc2C(=O)O)c(F)c1 [Example 114] ; what pKi value has been reported?
### Response 10.96

### Prompt What value of pKi has been recorded for this entry: Cc1cc(N(CCCCCNCCN2CCN(C)CC2)c2nc(C(=O)O)c(CCCOc3ccc(C#CCN(C)C)cc3F)s2)nnc1Nc1nc2ccccc2s1 [Example 167]
### Response 11.54

More entries:
### Prompt Requested read-out: pKi. Entry: CNCC#Cc1ccc(OCCCc2sc(N(CCC[N+](C)(C)CCCS(=O)(=O)[O-])c3cc(C)c(Nc4nc5ccccc5s4)nn3)nc2C(=O)O)c(F)c1 [Example 235]
### Response 11.96

* * *

Task for the reader: assign each of the following molecules its reported Ki.
target: Bcl-xL protein (Homo sapiens, UniProt Q07817, N197C); construct: (2-197)[N197C]; His-His (two His8 stretches joined by a Gly/Ala/Ser/Thr linker); assay: Fluorescence quenching assay (PUMA peptide displacement); settings: 1 nM protein, 400 nM peptide, 2 hours at 23° C.; KI determined from IC50
One number for each entry, in pM.

### Prompt Data request, read-out Ki, for `Cc1cc(N(CCCC(=O)O)c2nc(C(=O)O)c(CCCOc3ccc(C#CCN(C)C)cc3F)s2)nnc1Nc1nc2ccccc2s1`
### Response 4.5

Field: Ki. Fill in for each record below.
1. COCCCNCCOC12CC3(C)CC(C)(CC(Cn4ncc(-c5ccc(N(C)c6cc(C)c(Nc7nc8ccccc8s7)nn6)nc5C(=O)O)c4C)(C3)C1)C2
2. CNCC#Cc1ccc(OCCCc2sc(N(CCCC[N+](C)(C)C)c3cc(C)c(Nc4nc5ccccc5s4)nn3)nc2C(=O)O)c(F)c1
3. Cc1cc(N(CCCS(=O)(=O)O)c2nc(C(=O)O)c(CCCOc3ccc(C#CCN(C)C)cc3F)s2)nnc1Nc1nc2ccccc2s1
4. CNCC#Cc1ccc(OCCCc2sc(N(CCCCC[N+](C)(C)CC(=O)O)c3cc(C)c(Nc4nc5ccccc5s4)nn3)nc2C(=O)[O-])c(F)c1
5. Cc1cc(N(CCCCNCCN2CCOCC2)c2nc(C(=O)O)c(CCCOc3ccc(C#CCN(C)C)cc3F)s2)nnc1Nc1nc2ccccc2s1

### Response
1. 2.7
2. 1.7
3. 7.3
4. 1.3
5. 5.2

* * *

tested on: H146 cells; assay: H146 cell viability, MTT assay; format: cell-based; conditions: Homo sapiens, NCI-H146, 48 h, 48 h exposure
Could you please report measured pIC50 for the items listed next?
Numbers only, as −log10 of the molar value.

### Prompt Notebook entry, H146 cells assay: pIC50 of `Cc1c(Nc2cccc(C(=O)O)n2)nnc(Nc2nc3ccccc3s2)c1C` = ?
### Response 4.90

### Prompt Quick check: pIC50 on H146 cells, item `O=C(O)c1csc(Nc2nnc(Nc3nc4ccccc4s3)c3c2CCCC3)n1` ?
### Response 4.87

### Prompt What value of pIC50 on H146 cells does `Cc1cc(N(C)c2nc(C(=O)O)c(CCCOc3ccc(C45CC(CN(C)C)(C4)C5)cc3)s2)nnc1Nc1nc2ccccc2s1` have?
### Response 7.82

// each compound listed below needs its pIC50
1. Cc1cc(N(CCCC(O)C[N+](C)(C)C)c2nc(C(=O)[O-])c(CCCOc3ccc(C#CCN(C)C)cc3F)s2)nnc1Nc1nc2ccccc2s1 (centres unmarked)
2. Cc1cc(N(C)c2nc(C(=O)O)cs2)nnc1Nc1nc2ccccc2s1
3. CNCC#Cc1ccc(OCCCc2sc(N(CCCCC[N+](C)(C)C)c3cc(C)c(Nc4nc5ccccc5s4)nn3)nc2C(=O)O)c(F)c1
4. CNCC#Cc1ccc(OCCCc2sc(N(CCCC(O)CN(C)C)c3cc(C)c(Nc4nc5ccccc5s4)nn3)nc2C(=O)O)c(F)c1 (centres unmarked)
5. Cc1cc(N(C)c2nc(C(=O)O)c(N3CC(Oc4ccccc4)C3)s2)nnc1Nc1nc2ccccc2s1
6. CNCC#Cc1ccc(OCCCc2sc(N(CCC(O)CO)c3cc(C)c(Nc4nc5ccccc5s4)nn3)nc2C(=O)O)c(F)c1 (centres unmarked)

### Response
7.18
5.02
6.89
7.19
6.16
7.65

Hi, could you look up pIC50 for each item in my list?
1. CNCC#Cc1ccc(OCCCc2sc(N(CC(O)CO)c3cc(C)c(Nc4nc5ccccc5s4)nn3)nc2C(=O)O)c(F)c1 (centres unmarked)
2. Cc1cc(N(C)c2nc(C(=O)O)c(N3CCC(COc4ccccc4)CC3)s2)nnc1Nc1nc2ccccc2s1
3. CNCC#Cc1ccc(OCCCc2sc(N(CCCCCO)c3cc(C)c(Nc4nc5ccccc5s4)nn3)nc2C(=O)O)c(F)c1
4. Cc1cc(N(C)c2nc(C(=O)O)c(C3CCN(S(C)(=O)=O)CC3)s2)nnc1Nc1nc2ccccc2s1
5. Cc1c(Nc2nc(C(=O)O)cs2)nnc(Nc2nc3ccccc3s2)c1C1CC1
6. Cc1cc(N(CCCCC[N+](C)(C)CCCO)c2nc(C(=O)[O-])c(CCCOc3ccc(C#CCN(C)C)cc3F)s2)nnc1Nc1nc2ccccc2s1

### Response
1. 7.30
2. 4.96
3. 7.68
4. 5.39
5. 5.47
6. 6.45

Provide pIC50 values for the following items, in order.
1. CNCC#Cc1ccc(OCCCc2sc(N(CCCCCCN(C)C)c3cc(C)c(Nc4nc5ccccc5s4)nn3)nc2C(=O)O)c(F)c1
2. CNCC#Cc1ccc(OCCCc2sc(N(CC(CO)OC)c3cc(C)c(Nc4nc5ccccc5s4)nn3)nc2C(=O)O)c(F)c1 (centres unmarked)

### Response
7.19
7.49

* * *

Please respond with reported Ki for every item in the list.
molecular target: BCLXL (Homo sapiens, UniProt Q07817, V10N/V9A); test: Fluorescence polarisation assay (PUMA-based probe displacement); also: 20 nM protein, 10 nM fluorescent probe
Sequence (Q07817 with tags, fused parts or gaps V9A/V10N): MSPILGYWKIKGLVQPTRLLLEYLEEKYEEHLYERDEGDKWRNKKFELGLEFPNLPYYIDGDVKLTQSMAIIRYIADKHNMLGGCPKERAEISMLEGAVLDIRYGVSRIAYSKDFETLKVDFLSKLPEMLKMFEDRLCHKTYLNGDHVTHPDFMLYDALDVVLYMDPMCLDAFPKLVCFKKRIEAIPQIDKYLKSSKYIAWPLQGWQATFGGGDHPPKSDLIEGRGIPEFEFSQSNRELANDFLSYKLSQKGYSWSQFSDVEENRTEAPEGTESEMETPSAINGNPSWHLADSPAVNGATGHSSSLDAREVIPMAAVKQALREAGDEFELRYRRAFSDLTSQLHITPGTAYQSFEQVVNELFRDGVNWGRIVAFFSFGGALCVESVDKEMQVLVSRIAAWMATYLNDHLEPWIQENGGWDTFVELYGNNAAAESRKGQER
One number for each entry, in µM.

See these solved cases before continuing.
### Prompt // Ki lookup, key: `CCc1c(Nc2nc(C(=O)O)cs2)nnc(Nc2nc3ccccc3s2)c1C`
### Response 0.037

### Prompt What does the data say about its Ki? Entry: `O=C(O)c1cccc(Nc2nnc(Nc3nc4ccccc4s3)c3c2CCCC3)n1`
### Response 0.14

### Prompt Give its Ki value. Item: `COCCCN(c1cc(C)c(Nc2nc3ccccc3s2)nn1)c1nc(C(=O)O)cs1`
### Response 0.023

### Prompt May I ask what Ki has been recorded for `Cc1cc(N(C)c2nc(C(=O)O)c(C3CCN(Cc4ccccc4)CC3)s2)nnc1Nc1nc2ccccc2s1` ?
### Response 0.16

### Prompt What value of Ki has been reported for the following compound? `Cc1cc(N(CCCC(=O)O)c2nc(C(=O)O)cs2)nnc1Nc1nc2ccccc2s1`
### Response 0.043

### Prompt Look up Ki: `Cc1cc(N(C)c2nc(C(=O)O)c(C3CN(S(C)(=O)=O)C3)s2)nnc1Nc1nc2ccccc2s1`
### Response 1.3

Go through the list and state Ki for each entry.
1. Cc1cc(N(C)c2nc(C(=O)O)c(N3CC[C@H](OCc4ccccc4)C3)s2)nnc1Nc1nc2ccccc2s1
2. COCCCc1sc(N(CCCOC)c2cc(C)c(Nc3nc4ccccc4s3)nn2)nc1C(=O)O

### Response
[0.03, 0.031]
